system name: Recombinant KAT6A/MOZ (488-778) protein (Homo sapiens (Human))
assay explanation: KAT6A AlphaLISA Inhibition Screening Assay
Assay type: biochemical
recorded conditions: read-out: Average Kat6A % inhibition @ 1 μM; 1 μM test compound
Please go through the items and note down their inhibition at 1 µM.
One number for each entry, in %.

Here's what some known entries look like.
# compound, inhibition at 1 µM [%]
rows = [
    ("CCOc1cc2c(NS(=O)(=O)c3cc(CC)ccc3OC)noc2cc1Cn1cc(CNC(=O)OC)cn1 [Syn. Ex. 142]", 110),
    ("C=C(F)C(=O)NCc1ccc(Oc2cc(OC)c3c(NS(=O)(=O)c4cc(CC)ccc4OC)noc3c2)nc1 [Syn. Ex. 51]", 89),
    ("CCOc1cc(C)ccc1S(=O)(=O)Nc1noc2cc(Cn3cc(CNC(=O)OC)cn3)cc(OC)c12 [Syn. Ex. 136]", 99),
    ("CCc1ccc(OC)c(S(=O)(=O)Nc2noc3cc(Cn4cc(CNC(=O)OCCNC(C)=O)cn4)cc(OC)c23)c1 [Syn. Ex. 48]", 96),
    ("CCc1ccc(OCC(=O)OC)c(S(=O)(=O)Nc2noc3cc(Cn4cc(CNC(=O)OC)cn4)cc(OC)c23)c1 [Syn. Ex. 55]", 100),
]

Look up inhibition at 1 µM for the entries below, preserving their order.
1. C=C(F)C(=O)NCc1cnn(Cc2cc(OC)c3c(NS(=O)(=O)c4cc(CC)ccc4OCc4cnn[nH]4)noc3c2)c1 [Syn. Ex. 114]
2. C=C(F)C(=O)NCc1cnn(Cc2cc(OC)c3c(NS(=O)(=O)c4ccccc4OC)noc3c2)c1 [Syn. Ex. 40]

Marked response:
1: 100; 2: 99

====

system name: Recombinant KAT6A/MOZ (488-778) protein (Homo sapiens (Human), UniProt Q92794)
Sequence (Q92794 488-778): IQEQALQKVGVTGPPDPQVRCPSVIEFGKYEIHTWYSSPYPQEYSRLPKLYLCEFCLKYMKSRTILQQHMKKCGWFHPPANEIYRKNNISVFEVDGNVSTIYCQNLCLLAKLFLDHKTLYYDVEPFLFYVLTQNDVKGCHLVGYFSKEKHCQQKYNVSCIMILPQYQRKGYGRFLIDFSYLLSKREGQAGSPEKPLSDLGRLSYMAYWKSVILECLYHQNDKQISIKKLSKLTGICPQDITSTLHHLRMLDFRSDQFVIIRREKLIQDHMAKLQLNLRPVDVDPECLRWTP
assay explanation: KAT6A AlphaLISA Inhibition Screening Assay
Type: biochemical
recorded conditions: 1 μM test compound
property: Average Kat6A % inhibition @ 1 μM (%)
One number for each entry, in %.

Here's what some known entries look like.
# molecule, Average Kat6A % inhibition @ 1 μM (%)
records = [
    ("CCc1cc(S(=O)(=O)Nc2noc3cc(Cn4cc(CNC(=O)OC)cn4)cc(OC)c23)c(OC)cn1 [Syn. Ex. 120]", 100),
    ("C#CC(=O)N1Cc2cnn(Cc3cc(OC)c4c(NS(=O)(=O)c5ccc(C#N)cc5OC)noc4c3)c2C1 [Syn. Ex. 26]", 99),
    ("C=C(F)C(=O)Nc1ccc(Oc2cc(OC)c3c(NS(=O)(=O)c4cc5c(cc4OC)CCC5)noc3c2)nc1 [Syn. Ex. 144]", 101),
    ("COC(=O)NCc1cnn(Cc2cc(OC)c3c(NS(=O)(=O)c4cccc5cc(C)cnc45)noc3c2)c1 [Syn. Ex. 129]", 102),
    ("COC(=O)NCc1cnn(Cc2cc3onc(NS(=O)(=O)c4cc(C)cc5cccnc45)c3c3c2CCCO3)c1 [Syn. Ex. 132]", 100),
]

Look up Average Kat6A % inhibition @ 1 μM for the entries below, preserving their order.
1. CCc1ccc(OC)c(S(=O)(=O)Nc2noc3cc(Cn4cc(CNC(=O)OCCN)cn4)cc(OC)c23)c1 [Syn. Ex. 32]
2. COC(=O)NCc1cnn(Cc2cc(OC)c3c(NS(=O)(=O)c4cc(C)cc5cccnc45)noc3c2)c1 [Syn. Ex. 130]

Marked response:
[75, 100]

Look up Average Kat6A % inhibition @ 1 μM for the entries below, preserving their order.
1. COC(=O)NCc1cnn(Cc2cc(OC)c3c(NS(=O)(=O)c4cccc5c(C)ccnc45)noc3c2)c1 [Syn. Ex. 131]
2. COC(=O)NCc1cnn(Cc2cc(OC)c3c(NS(=O)(=O)c4cc5c(cc4OC)CCO5)noc3c2)c1 [Syn. Ex. 126]
3. C=C(F)C(=O)NCc1cnc(Oc2cc(OC)c3c(NS(=O)(=O)c4cc5c(cc4OC)CCC5)noc3c2)s1 [Syn. Ex. 143]
4. C#CC(=O)NCc1cnn(Cc2cc(OC)c3c(NS(=O)(=O)c4cc5c(cc4OC)CCC5)noc3c2)c1 [Syn. Ex. 23]
5. COC(=O)NCc1cnn(Cc2cc(OC)c3c(NS(=O)(=O)c4ccccc4OC)noc3c2)c1 [Syn. Ex. 7]

Marked response:
1: 99; 2: 101; 3: 101; 4: 100; 5: 97
